Biological target: recombinant human SIRPα variant 1 protein (human) (UniProt P78324)
Sequence (P78324 31-370, change not shown): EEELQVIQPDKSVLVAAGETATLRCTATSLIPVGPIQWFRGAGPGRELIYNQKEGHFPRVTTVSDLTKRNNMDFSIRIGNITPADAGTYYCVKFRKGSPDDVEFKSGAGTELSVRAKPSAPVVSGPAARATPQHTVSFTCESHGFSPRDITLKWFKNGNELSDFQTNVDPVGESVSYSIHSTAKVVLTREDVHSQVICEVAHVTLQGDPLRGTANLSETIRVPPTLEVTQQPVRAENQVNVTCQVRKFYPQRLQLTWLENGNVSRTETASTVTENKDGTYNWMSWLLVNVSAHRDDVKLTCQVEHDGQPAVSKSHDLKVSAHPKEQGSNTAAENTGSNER
Test: SPR Biacore 8K, antibody captured, antigen analyte
Could you please report measured kon for the items listed next?
State the answer as a number, implicitly in M⁻¹ s⁻¹.

Looking up HSP210-02-hz52 (antibody, V domains shown) VH: QVQLVQSGAEVKKPGASVKVSCKASGFNFEDTYMHWVRQAPGQGLEWMGRIDPADADTKYNPKFQDRVTITVDTSTNTAYMELSSLRSEDTAVYYCVRGNYVNWGQGTTVTVSS VL: EIVLTQSPGTLSLSPGERATLSCRASSSVSSSYLYWYQQKPGQAPRLLIYSTSNLASGIPDRFSGSGSGTDYTLTISRLEPEDAAVYFCHQWYSYPRTFGGGTKVEIK , I found its kon recorded as 704000

Record 300A6A6 (antibody, V domains shown) VH: QVQLQQSGTELVKPGSSVKISCKASGYTFTSNYIHWIRQQPGNGLEWIGWIYPGDGDTNYNQKFNGKATLTADKSSSTAYMQLSSLTSEDYAVYFCAINYGGIWFAYWGQGTLVTVSS VL: DIQMTQSPSSMSASLGDRVTITCQASQDIGNKLIWFQQKPGKSPRLMIHYVTNLPGGVPLRFSGSRSGSDYSLTISSLESEDMADYYCLQYKQNPLTFGSGTKLEIK . Reported kon: 131000

What the record says about HSP210-03-hz51 (antibody, V domains shown) VH: QVQLVQSGAEVKKPGSSVKVSCKASGYTFTSNYIHWVRQAPGQGLEWMGWIYPGDADTNYNQKFNGRVTLTADKSTSTAYMELSSLRSEDTAVYYCAINYGGIWFAYWGQGTLVTVSS VL: DIQMTQSPSSLSASVGDRVTITCQASQDIGNKLIWYQQKPGKAPKLLIYYVTNLPGGVPSRFSGSGSGTDFTLTISSLQPEDFATYYCLQYKQNPLTFGQGTKLEIK : kon is 805000

From: patent US20240101716A1
